Target: α-amylase (EC.3.2.1.1) (Homo sapiens, UniProt P04746)
Assay: In vitro α-amylase inhibition (starch/DNS, 540 nm)
Type: biochemical
Settings: 8 µg

compound | α-Amylase Inhibition %
COc1cc(C(C)=O)ccc1OC(=O)c1cccnc1 [Compound 2i, 4-Acetyl-2-methoxyphenyl nicotinate] | 71.01%
C[C@H]1O[C@H](O[C@H]2[C@H](O)[C@@H](O)[C@@H](O[C@H]3[C@H](O)[C@@H](O)C(O)O[C@@H]3CO)O[C@@H]2CO)[C@H](O)[C@@H](O)[C@@H]1N[C@H]1C=C(CO)[C@@H](O)[C@H](O)[C@H]1O (stereo partly drawn) [Acarbose, reference compound] | 80.97%
CCOc1ccc2nc(NC(=O)c3cccnc3)sc2c1 | 69.69%
O=C(NCc1ccc2c(c1)OCO2)c1cccnc1 | 72.76%
COC(=O)C=Cc1cccc(OC(=O)c2cccnc2)c1 | 47.87%
O=C(Nc1ccc2c(c1)OCO2)c1cccnc1 [Compound 2j, N-(Benzo[1,3]dioxol-5-yl)nicotinamide] | 68.96%
O=C(Oc1ccc2c(c1)OCO2)c1cccnc1 [Compound 2h, Benzo[1,3]dioxol-5-yl nicotinate] | 70.57%
COC(=O)C=Cc1ccccc1OC(=O)c1cccnc1 | 40.84%
COC(=O)/C=C/c1ccc(OC(=O)c2cccnc2)c(OC)c1 | 69.1%

---

Molecular target: α-amylase (EC.3.2.1.1) (Homo sapiens, UniProt P04746)
Sequence (P04746 16-511): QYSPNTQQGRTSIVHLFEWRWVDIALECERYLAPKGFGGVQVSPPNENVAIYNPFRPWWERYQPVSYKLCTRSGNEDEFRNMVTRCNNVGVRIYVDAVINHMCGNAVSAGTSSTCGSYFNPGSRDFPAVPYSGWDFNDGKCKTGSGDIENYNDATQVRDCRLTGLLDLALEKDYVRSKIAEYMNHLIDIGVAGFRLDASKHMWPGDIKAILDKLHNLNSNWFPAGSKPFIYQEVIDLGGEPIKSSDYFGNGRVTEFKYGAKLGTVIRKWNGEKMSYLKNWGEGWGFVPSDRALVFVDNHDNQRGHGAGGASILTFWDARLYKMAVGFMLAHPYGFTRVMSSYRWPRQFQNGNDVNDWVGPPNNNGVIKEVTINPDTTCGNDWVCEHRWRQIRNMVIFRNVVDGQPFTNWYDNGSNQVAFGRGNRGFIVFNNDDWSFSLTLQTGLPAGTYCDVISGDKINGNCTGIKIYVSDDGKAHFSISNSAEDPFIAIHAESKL
Experiment: In vitro α-amylase inhibition (starch/DNS, 540 nm)
Assay type: biochemical
Details: 10 µg

molecule | α-Amylase Inhibition % / %
O=C(Oc1ccc2c(c1)OCO2)c1cccnc1 [Compound 2h, Benzo[1,3]dioxol-5-yl nicotinate] | 70.13
COc1cc(C(C)=O)ccc1OC(=O)c1cccnc1 [Compound 2i, 4-Acetyl-2-methoxyphenyl nicotinate] | 70.86
O=C(NCc1ccc2c(c1)OCO2)c1cccnc1 | 56.22
COC(=O)C=Cc1cccc(OC(=O)c2cccnc2)c1 | 36.74
CCOc1ccc2nc(NC(=O)c3cccnc3)sc2c1 | 55.63

---

Test: ABTS cation radical scavenging (734 nm)
Settings: 60 µM
// reported ABTS Inhibition % for each item listed

compound | display.unit | ABTS Inhibition %
O=C(Nc1ccc2c(c1)OCO2)c1cccnc1 [Compound 2j, N-(Benzo[1,3]dioxol-5-yl)nicotinamide] | % | 42.4
O=C1O[C@H]([C@@H](O)CO)C(O)=C1O [Ascorbic acid, reference compound] | % | 95
O=C(NCc1ccc2c(c1)OCO2)c1cccnc1 | % | 29.3
COC(=O)C=Cc1ccccc1OC(=O)c1cccnc1 | % | 58.1
COC(=O)C=Cc1cc(OC)c(OC(=O)c2cccnc2)c(OC)c1 | % | 62.5
O=C(Oc1ccc2c(c1)OCO2)c1cccnc1 [Compound 2h, Benzo[1,3]dioxol-5-yl nicotinate] | % | 72
COC(=O)C=Cc1cccc(OC(=O)c2cccnc2)c1 | % | 41.5
CCOc1ccc2nc(NC(=O)c3cccnc3)sc2c1 | % | 46.3
COC(=O)/C=C/c1ccc(OC)c(OC(=O)c2cccnc2)c1 | % | 59.8
COc1cc(C(C)=O)ccc1OC(=O)c1cccnc1 [Compound 2i, 4-Acetyl-2-methoxyphenyl nicotinate] | % | 49.5
COC(=O)/C=C/c1ccc(OC(=O)c2cccnc2)c(OC)c1 | % | 60.9
